# Test system: Radical scavenging activity
# Run Description: Antioxidant activity assessed as DPPH free radical scavenging activity at 0.05 mM after 60 mins
# Format: functional
Measured Activity of individual entries
// note: answer is a bare numeric in %

Answered examples (5):
[
  {
    "Molecule": "COC(=O)c1cc(=O)oc2c3c(ccc12)OC(C)(C)C3",
    "System Tested": "Radical scavenging activity",
    "Activity, %": 12
  },
  {
    "Molecule": "CC(Cc1ccc(O)c(O)c1)C(C)Cc1ccc(O)c(O)c1 (stereo not drawn)",
    "System Tested": "Radical scavenging activity",
    "Activity, %": 81
  },
  {
    "Molecule": "COC(=O)c1cc(=O)oc2cc3c(cc12)CCCC3",
    "System Tested": "Radical scavenging activity",
    "Activity, %": 21
  },
  {
    "Molecule": "COC(=O)c1cc(=O)oc2cc3c(cc12)CCC3",
    "System Tested": "Radical scavenging activity",
    "Activity, %": 22
  },
  {
    "Molecule": "COC(=O)c1cc(=O)oc2c3c(ccc12)CCCC3",
    "System Tested": "Radical scavenging activity",
    "Activity, %": 31
  }
]

Exercise: Fill: Activity (Radical scavenging activity) for this molecule COC(=O)c1cc(=O)oc2ccc3c(c12)CCCC3
Key: 17

Exercise: Report its Activity with Radical scavenging activity as the test system: O=c1ccc2ccc3c(c2o1)CCCC3
Key: 15

Exercise: Look up and report Activity, with Radical scavenging activity as system, for COC(=O)c1cc(=O)oc2cc3c(cc12)OCO3
Key: 18

---

# Test system: Radical scavenging activity
# Run Description: Antioxidant activity assessed as DPPH free radical scavenging activity at 0.1 mM after 60 mins
# Assay type: functional
Calls of active or inactive are those of the source. No cut-off for these calls is given here.
Result Type: Activity

See these solved cases before continuing.
[
  {
    "Compound": "COC(=O)c1cc(=O)oc2ccc3c(c12)CCCC3",
    "Value": "20%"
  },
  {
    "Compound": "COC(=O)c1cc(=O)oc2cc3c(cc12)CCC3",
    "Value": "27%"
  },
  {
    "Compound": "CC(Cc1ccc(O)c(O)c1)C(C)Cc1ccc(O)c(O)c1 (stereo not drawn)",
    "Value": "83%"
  },
  {
    "Compound": "COC(=O)c1cc(=O)oc2cc3c(cc12)CCCC3",
    "Value": "25%"
  },
  {
    "Compound": "COC(=O)c1cc(=O)oc2c3c(ccc12)OC(C)(C)C3",
    "Value": "inactive"
  },
  {
    "Compound": "COC(=O)c1cc(=O)oc2c3c(ccc12)CCCC3",
    "Value": "inactive"
  },
  {
    "Compound": "O=c1ccc2ccc3c(c2o1)CCCC3",
    "Value": "inactive"
  }
]

Could you now consider this next compound?
Exercise: Give the value of Activity reported for the following: COC(=O)c1cc(=O)oc2cc3c(cc12)OCO3
Key: 21%

---

# System: Rattus norvegicus
# Run Description: Antiinflammatory activity in Fisher 344 rat assessed as inhibition of carrageenan-induced paw edema at 0.01 mmol/kg, ip after 3.5 hrs
# Assay type: functional
# Condition Set: Fisher 344, ip
The following compounds are listed with their measured inhibition in vivo at 10 µmol/kg values.
Please respond with the number in % and leave the unit unwritten.

Field: example entries. Status: answers known.
[
  {
    "Smiles Input": "O=c1ccc2ccc3c(c2o1)CCCC3",
    "Measurement Unit": "%",
    "inhibition in vivo at 10 µmol/kg": 54
  },
  {
    "Smiles Input": "COC(=O)c1cc(=O)oc2c3c(ccc12)CCCC3",
    "Measurement Unit": "%",
    "inhibition in vivo at 10 µmol/kg": 62
  },
  {
    "Smiles Input": "COc1ccc2c(c1)c(CC(=O)O)c(C)n2C(=O)c1ccc(Cl)cc1",
    "Measurement Unit": "%",
    "inhibition in vivo at 10 µmol/kg": 47
  },
  {
    "Smiles Input": "COC(=O)c1cc(=O)oc2cc3c(cc12)CCCC3",
    "Measurement Unit": "%",
    "inhibition in vivo at 10 µmol/kg": 43.4
  },
  {
    "Smiles Input": "COC(=O)c1cc(=O)oc2cc3c(cc12)OCO3",
    "Measurement Unit": "%",
    "inhibition in vivo at 10 µmol/kg": 45.5
  }
]

Exercise: State inhibition in vivo at 10 µmol/kg (Rattus norvegicus) of COC(=O)c1cc(=O)oc2c3c(ccc12)OC(C)(C)C3 .
Key: 65

Exercise: Lab note: record inhibition in vivo at 10 µmol/kg of COC(=O)c1cc(=O)oc2ccc3c(c12)CCCC3 tested on Rattus norvegicus.
Key: 34

The values you see were collected from ChEMBL document CHEMBL1154172.
